Catalogue of pIC50 readings, one per entry.
# assayedTarget: UniProt P00533
# Sequence (P00533 whole entry, the tested form may be a part): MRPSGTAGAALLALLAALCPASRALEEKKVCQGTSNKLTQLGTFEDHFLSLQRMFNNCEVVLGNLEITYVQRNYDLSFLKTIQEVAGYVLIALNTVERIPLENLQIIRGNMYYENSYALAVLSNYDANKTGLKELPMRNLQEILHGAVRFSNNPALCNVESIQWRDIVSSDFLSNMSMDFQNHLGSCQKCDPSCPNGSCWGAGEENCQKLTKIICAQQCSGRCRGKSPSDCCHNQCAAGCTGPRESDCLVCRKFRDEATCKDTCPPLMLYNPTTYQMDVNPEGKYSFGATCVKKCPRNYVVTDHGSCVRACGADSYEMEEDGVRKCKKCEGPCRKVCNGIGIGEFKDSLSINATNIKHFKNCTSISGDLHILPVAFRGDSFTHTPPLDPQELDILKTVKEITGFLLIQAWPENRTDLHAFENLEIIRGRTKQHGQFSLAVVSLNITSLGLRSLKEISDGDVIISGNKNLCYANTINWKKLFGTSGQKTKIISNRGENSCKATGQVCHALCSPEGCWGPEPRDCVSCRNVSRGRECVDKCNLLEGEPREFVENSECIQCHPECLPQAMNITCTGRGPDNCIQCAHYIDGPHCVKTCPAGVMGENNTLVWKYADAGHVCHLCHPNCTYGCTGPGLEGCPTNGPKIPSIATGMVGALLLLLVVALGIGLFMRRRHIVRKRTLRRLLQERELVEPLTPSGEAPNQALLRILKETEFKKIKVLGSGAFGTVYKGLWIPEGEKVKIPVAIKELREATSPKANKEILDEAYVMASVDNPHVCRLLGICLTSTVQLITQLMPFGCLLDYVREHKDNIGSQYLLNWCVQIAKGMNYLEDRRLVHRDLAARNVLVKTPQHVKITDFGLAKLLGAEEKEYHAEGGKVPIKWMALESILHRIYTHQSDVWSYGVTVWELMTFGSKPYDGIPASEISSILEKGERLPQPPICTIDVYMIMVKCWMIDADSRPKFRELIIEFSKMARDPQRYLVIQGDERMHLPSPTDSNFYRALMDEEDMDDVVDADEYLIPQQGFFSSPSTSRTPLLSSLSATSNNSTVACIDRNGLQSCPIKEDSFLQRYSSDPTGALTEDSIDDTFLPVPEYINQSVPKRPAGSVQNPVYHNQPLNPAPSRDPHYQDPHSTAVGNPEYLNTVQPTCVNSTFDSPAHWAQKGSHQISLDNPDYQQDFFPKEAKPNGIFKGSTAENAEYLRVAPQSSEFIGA
# test: Inhibition of recombinant human GST-tagged EGFR cytoplasmic domain (668 to 1210 residues) expressed in baculovirus by Z'-LYTE assay
Convention used: pIC50 is expressed as -log10 of the molar concentration.

Some compounds with recorded pIC50:
compound="COc1ccc(-c2cc3c(NC(CC(N)=O)c4ccccc4)ncnc3o2)cc1 (racemic)" observedresult=7.66
compound=C[C@@H](Nc1ncnc2oc(-c3ccc(Br)cc3)cc12)c1ccccc1 observedresult=7.25

// next item, pIC50 requested
Answer briefly: pIC50 recorded on UniProt P00533 for `C[C@@H](Nc1ncnc2oc(-c3ccc(F)cc3)cc12)c1ccccc1`
7.89
